- Tested on: VEGF165 (vascular endothelial growth factor, 165 aa form) (Homo sapiens), P15692-4
- Sequence: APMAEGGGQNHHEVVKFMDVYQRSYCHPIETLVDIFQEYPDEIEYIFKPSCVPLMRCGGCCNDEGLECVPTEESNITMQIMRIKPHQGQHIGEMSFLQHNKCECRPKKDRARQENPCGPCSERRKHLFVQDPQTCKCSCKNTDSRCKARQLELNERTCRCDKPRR
- Method: competition
- Test Conditions: 2'-NH2 at all C and U; 2'-OMe A5,A16,G13,G17,G20,G24-26,G28; PS 2'-deoxy T caps 1-4 and 29-33; 125I-VEGF receptor binding
Experimental Endpoint: pKi
Answers are plain numbers, as −log10 of the molar value.

Prompt: Please look up its pKi: TTTACCCUGAUGGUAGACGCCGGGGUGTTTTT [NX-214]
Completion: 9.00

---

- Tested on: VEGF165 (vascular endothelial growth factor, 165 aa form) (Homo sapiens), P15692-4
- Sequence: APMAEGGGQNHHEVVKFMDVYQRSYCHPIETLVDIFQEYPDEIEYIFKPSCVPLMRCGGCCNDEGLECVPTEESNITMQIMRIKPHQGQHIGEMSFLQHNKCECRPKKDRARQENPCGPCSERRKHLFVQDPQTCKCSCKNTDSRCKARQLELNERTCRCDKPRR
- Method: filter
- Test Conditions: 2'-NH2 at all C and U; 2'-OMe A5,A16,G13,G17,G20,G24-26,G28; PS 2'-deoxy T caps 1-4 and 29-33
Experimental Endpoint: Kd (nM)
Numbers only, in nM.

Prompt: Please look up its Kd: TTTACCCUGAUGGUAGACGCCGGGGUGTTTTT [NX-214]
Completion: 0.2
